Target: Oxysterols receptor LXR-alpha (Homo sapiens)
Sequence (Q13133 whole entry): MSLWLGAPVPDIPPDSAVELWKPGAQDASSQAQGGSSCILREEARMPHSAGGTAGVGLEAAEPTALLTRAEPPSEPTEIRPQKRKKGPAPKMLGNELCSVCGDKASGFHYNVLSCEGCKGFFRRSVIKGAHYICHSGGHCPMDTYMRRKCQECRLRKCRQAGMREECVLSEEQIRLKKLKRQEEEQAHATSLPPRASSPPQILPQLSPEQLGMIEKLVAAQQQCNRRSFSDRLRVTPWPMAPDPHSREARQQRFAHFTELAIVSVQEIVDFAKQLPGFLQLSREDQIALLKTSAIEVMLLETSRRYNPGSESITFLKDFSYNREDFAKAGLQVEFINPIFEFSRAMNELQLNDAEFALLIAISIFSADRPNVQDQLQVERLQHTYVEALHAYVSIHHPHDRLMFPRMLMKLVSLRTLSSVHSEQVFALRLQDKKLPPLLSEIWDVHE
Assay: Effective concentration in recombinant human LXRalpha ligand binding domain in homogeneous time-resolved fluorescence assay

| Smiles Structure | EC50 |
| --- | --- |
| C=CCOC(=O)[C@@]1(C)CCC[C@]2(C)c3cc(O)ccc3CC[C@@H]12 | > 50 µM |

====

Target: Oxysterols receptor LXR-beta (Homo sapiens)
Sequence (P55055 whole entry): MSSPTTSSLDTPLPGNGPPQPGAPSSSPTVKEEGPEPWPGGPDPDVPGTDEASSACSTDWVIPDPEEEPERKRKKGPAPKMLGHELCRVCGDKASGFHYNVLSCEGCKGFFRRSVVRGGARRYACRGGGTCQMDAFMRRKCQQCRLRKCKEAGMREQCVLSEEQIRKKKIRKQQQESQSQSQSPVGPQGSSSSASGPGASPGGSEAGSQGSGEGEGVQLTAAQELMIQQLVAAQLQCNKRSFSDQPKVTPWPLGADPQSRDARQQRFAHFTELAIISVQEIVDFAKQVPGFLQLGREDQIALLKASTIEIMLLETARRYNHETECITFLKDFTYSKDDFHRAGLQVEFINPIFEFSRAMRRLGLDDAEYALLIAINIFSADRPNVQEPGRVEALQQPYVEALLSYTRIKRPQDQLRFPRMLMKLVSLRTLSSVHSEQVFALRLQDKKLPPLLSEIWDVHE

| Smiles Structure | Test Target | IC50 |
| --- | --- | --- |
| C=CCOC(=O)[C@@]1(C)CCC[C@]2(C)c3cc(O)ccc3CC[C@@H]12 | Oxysterols receptor LXR-beta (Homo sapiens) | > 15 µM |

====

Target: Oxysterols receptor LXR-alpha (Homo sapiens, UniProt Q13133)
Sequence (Q13133 whole entry): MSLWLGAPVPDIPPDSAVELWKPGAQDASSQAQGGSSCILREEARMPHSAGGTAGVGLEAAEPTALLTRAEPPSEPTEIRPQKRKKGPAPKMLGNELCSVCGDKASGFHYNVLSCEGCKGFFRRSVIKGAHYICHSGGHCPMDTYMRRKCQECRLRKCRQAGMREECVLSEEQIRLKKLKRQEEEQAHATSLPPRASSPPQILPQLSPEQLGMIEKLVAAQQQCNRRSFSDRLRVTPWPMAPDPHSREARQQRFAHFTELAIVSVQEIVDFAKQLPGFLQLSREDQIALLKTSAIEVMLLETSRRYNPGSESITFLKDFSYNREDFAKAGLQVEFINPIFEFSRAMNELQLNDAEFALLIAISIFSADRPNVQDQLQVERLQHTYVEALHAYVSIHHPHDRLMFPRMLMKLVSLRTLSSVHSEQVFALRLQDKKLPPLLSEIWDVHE

| Smiles Structure | Test Target | IC50 |
| --- | --- | --- |
| C=CCOC(=O)[C@@]1(C)CCC[C@]2(C)c3cc(O)ccc3CC[C@@H]12 | Oxysterols receptor LXR-alpha (Homo sapiens, UniProt Q13133) | > 15 µM |
